Origin of values: patent EP4206196A1

IC50 for assorted compounds
System: STAT1/3 through TYK2/JAK1
Test: IFNa induced STAT phosphorylation in HEK293 cells (SIE-bla reporter gene)
Type: cell-based
Settings: Homo sapiens, HEK293; HEK293T-sie-bla cells, IFNa at EC80, 4 hours; read-out: Inhibition of IFNa induced STAT phosphorylation HEK293 cells IC50

{"columns": ["compound", "study_system", "IC50"],
 "data": [
  ["Cc1cc(Nc2cc(Nc3nccc(C)c3N(C)S(C)(=O)=O)ncn2)nc(C)n1 [Example 61]", "STAT1/3 through TYK2/JAK1", "100 to 1000 nM"],
  ["Cc1cc(Nc2cc(Nc3ncc(-c4cnn(C)c4C)c(C)c3S(C)(=O)=O)ncn2)nc(C)n1 [Example 153]", "STAT1/3 through TYK2/JAK1", "< 10 nM"],
  ["CCn1cnc(-c2cccc(Nc3cc(Nc4cc(C)nc(C)n4)ncn3)c2OC)n1 [Example 46]", "STAT1/3 through TYK2/JAK1", "10 to 100 nM"],
  ["[2H]C([2H])([2H])N(c1cc(-c2cnn(C)c2C)ccc1Nc1cc(Nc2cc(C)nc(C)n2)ncn1)S(C)(=O)=O [Example 98]", "STAT1/3 through TYK2/JAK1", "> 1000 nM"],
  ["COc1cc(-c2cn(C)cn2)ccc1Nc1cc(Nc2cc(C)nc(C)n2)ncn1 [Example 90]", "STAT1/3 through TYK2/JAK1", "> 1000 nM"],
  ["Cc1c(-c2cnc(Nc3cc(Nc4ccc(F)cn4)ncn3)c(N(C)S(C)(=O)=O)c2)cnn1C [Example 138]", "STAT1/3 through TYK2/JAK1", "< 10 nM"],
  ["Cc1cc(Nc2cc(Nc3ncc(-c4nc(C(F)(F)F)n(C)n4)cc3N(C)S(C)(=O)=O)ncn2)nc(C)n1 [Example 122]", "STAT1/3 through TYK2/JAK1", "10 to 100 nM"],
  ["COc1c(Nc2cc(Nc3cc(C)nc(C)n3)ncn2)cccc1-c1nc(C)nn1C1COC1 [Example 48]", "STAT1/3 through TYK2/JAK1", "> 1000 nM"]
]}

###

System: STAT1/3 through TYK2/JAK1
Assay: IFNa induced STAT phosphorylation in HEK293 cells (SIE-bla reporter gene)
Type: cell-based
Conditions: Homo sapiens, HEK293; HEK293T-sie-bla cells, IFNa at EC80, 4 hours; read-out: Inhibition of IFNa induced STAT phosphorylation HEK293 cells IC50
pIC50: −log10 of the molar value.
pIC50 for assorted compounds

{"columns": ["compound", "study_system", "pIC50"],
 "data": [
  ["COc1cc(-c2ncc(F)cn2)ccc1Nc1cc(Nc2cc(C)nc(C)n2)ncn1 [Example 81]", "STAT1/3 through TYK2/JAK1", "< 6.00"],
  ["COc1cccc(Nc2cc(Nc3cc(C)nc(C)n3)ncn2)c1 [Example 5]", "STAT1/3 through TYK2/JAK1", "< 6.00"],
  ["Cc1cc(Nc2cc(Nc3ccc(C4=CCCCO4)cc3N(C)S(C)(=O)=O)ncn2)nc(C)n1 [Example 92]", "STAT1/3 through TYK2/JAK1", "> 8.00"],
  ["Cc1cc(Nc2cc(Nc3ncc(-c4cnn(C)c4C)cc3N(C)S(C)(=O)=O)ncn2)nc(C)n1 [Example 124]", "STAT1/3 through TYK2/JAK1", "> 8.00"],
  ["COc1c(Nc2cc(Nc3cc(C)nc(C)n3)ncn2)ncc(-c2cnn(C)c2C)c1C [Example 141]", "STAT1/3 through TYK2/JAK1", "7.00 to 8.00"],
  ["CN(c1ccccc1Nc1cc(NC(=O)C2CC2)ncn1)S(C)(=O)=O [Example 14]", "STAT1/3 through TYK2/JAK1", "6.00 to 7.00"],
  ["Cc1cc(Nc2cc(Nc3ncc(-c4cnn(C)c4C)cc3NS(C)(=O)=O)ncn2)nc(C)n1 [Example 144]", "STAT1/3 through TYK2/JAK1", "7.00 to 8.00"],
  ["Cc1cc(Nc2cc(Nc3ncc(-c4cnn(C)c4C)cc3S(C)(=O)=O)ncn2)nc(C)n1 [Example 137]", "STAT1/3 through TYK2/JAK1", "> 8.00"],
  ["Cc1cc(Nc2cc(Nc3ncc(-c4ncc(C)n4C)cc3N(C)S(C)(=O)=O)ncn2)nc(C)n1 [Example 140]", "STAT1/3 through TYK2/JAK1", "7.00 to 8.00"],
  ["COc1cc(-c2cnn(C)c2C)ccc1Nc1cc(Nc2cc(C)nc(C)n2)ncn1 [Example 80]", "STAT1/3 through TYK2/JAK1", "7.00 to 8.00"],
  ["Cc1cc(Nc2cc(Nc3ncc(C4CC4)cc3P(C)(C)=O)ncn2)nc(C)n1 [Example 171]", "STAT1/3 through TYK2/JAK1", "7.00 to 8.00"],
  ["COc1cccc(Nc2cc(Nc3cc(C)nc(C)n3)ncn2)c1OC [Example 20]", "STAT1/3 through TYK2/JAK1", "6.00 to 7.00"],
  ["Cc1cc(Nc2cc(Nc3nccc(C)c3S(C)(=O)=O)ncn2)nc(C)n1 [Example 150]", "STAT1/3 through TYK2/JAK1", "> 8.00"],
  ["Cc1ccc(Nc2cc(Nc3ncc(-c4cnn(C)c4C)cc3N(C)S(C)(=O)=O)ncn2)nn1 [Example 158]", "STAT1/3 through TYK2/JAK1", "7.00 to 8.00"],
  ["Cc1cc(Nc2cc(Nc3ncc(-c4ncnn4C)cc3N(C)S(C)(=O)=O)ncn2)nc(C)n1 [Example 130]", "STAT1/3 through TYK2/JAK1", "6.00 to 7.00"],
  ["COc1c(Nc2cc(Nc3cc(C)nc(C)n3)ncn2)cccc1-c1ncn(CC2CCCO2)n1 (stereo not drawn) [Example 59]", "STAT1/3 through TYK2/JAK1", "7.00 to 8.00"],
  ["CN(c1ccccc1Nc1cc(Nc2cccc(C#N)n2)ncn1)S(C)(=O)=O [Example 32]", "STAT1/3 through TYK2/JAK1", "> 8.00"],
  ["COc1c(Nc2cc(Nc3cc(C)nc(C)n3)ncn2)cccc1-c1ccnnc1 [Example 42]", "STAT1/3 through TYK2/JAK1", "< 6.00"],
  ["COc1c(-c2noc(C(F)(F)F)n2)ccnc1Nc1cc(Nc2cc(C)nc(C)n2)ncn1 [Example 143]", "STAT1/3 through TYK2/JAK1", "< 6.00"],
  ["CN=S(C)(=O)c1cc(-c2cnn(C)c2C)ccc1Nc1cc(Nc2cc(C)nc(C)n2)ncn1 (stereo not drawn) [Example 113]", "STAT1/3 through TYK2/JAK1", "> 8.00"],
  ["COc1c(Nc2cc(Nc3cc(C)nc(C)n3)ncn2)cccc1-c1ncn(C(F)F)n1 [Example 54]", "STAT1/3 through TYK2/JAK1", "6.00 to 7.00"],
  ["COc1cc(C(=O)N2CCCC2)ccc1Nc1cc(Nc2cc(C)nc(C)n2)ncn1 [Example 78]", "STAT1/3 through TYK2/JAK1", "< 6.00"],
  ["Cc1cc(Nc2cc(Nc3ncc(-c4cnc(C)n4C)cc3N(C)S(C)(=O)=O)ncn2)nc(C)n1 [Example 142]", "STAT1/3 through TYK2/JAK1", "7.00 to 8.00"],
  ["Cc1cc(Nc2cc(Nc3cc(F)ccc3N(C)S(C)(=O)=O)ncn2)nc(C)n1 [Example 75]", "STAT1/3 through TYK2/JAK1", "7.00 to 8.00"],
  ["COc1c(Nc2cc(Nc3cc(C)nc(C)n3)ncn2)cccc1-c1nc(C)n(CC(F)(F)F)n1 [Example 38]", "STAT1/3 through TYK2/JAK1", "7.00 to 8.00"],
  ["Cc1ccc(Nc2cc(Nc3cc(C)nc(C)n3)ncn2)c(N(C)S(C)(=O)=O)c1 [Example 69]", "STAT1/3 through TYK2/JAK1", "7.00 to 8.00"],
  ["Cc1c(-c2cnc(Nc3cc(NC(=O)C4CC4)ncn3)c(N(C)S(C)(=O)=O)c2)cnn1C [Example 139]", "STAT1/3 through TYK2/JAK1", "> 8.00"],
  ["COc1c(C)cccc1Nc1cc(NC(=O)C2CC2)ncn1 [Example 3]", "STAT1/3 through TYK2/JAK1", "< 6.00"],
  ["Cc1cc(Nc2cc(Nc3ncc(C4CCOCC4)cc3N(C)S(C)(=O)=O)ncn2)nc(C)n1 [Example 157]", "STAT1/3 through TYK2/JAK1", "7.00 to 8.00"],
  ["COc1c(Nc2cc(Nc3cc(C)nc(C)n3)ncn2)cccc1-c1ncn(C2CC2(F)F)n1 (stereo not drawn) [Example 55]", "STAT1/3 through TYK2/JAK1", "7.00 to 8.00"],
  ["Cc1cc(Nc2cc(Nc3ccc(C4=CCCOC4)cc3N(C)S(C)(=O)=O)ncn2)nc(C)n1 [Example 94]", "STAT1/3 through TYK2/JAK1", "> 8.00"],
  ["Cc1c(-c2cnc(Nc3cc(NC(=O)C4CC4)ncn3)c(P(C)(C)=O)c2)cnn1C [Example 161]", "STAT1/3 through TYK2/JAK1", "7.00 to 8.00"],
  ["CN=S(C)(=O)c1cc(-c2cnn(C)c2C)cnc1Nc1cc(Nc2cc(C)nc(C)n2)ncn1 (stereo not drawn) [Example 168]", "STAT1/3 through TYK2/JAK1", "> 8.00"]
]}
